Reference source for all entries: the kinase profiling compilation of Christmann-Franck et al. (2016)

Let's look at some compounds and their measured residual activity.
Biological target: PRKD2 (human)
Assay: radiometric filter-binding kinase assay, Kinase HotSpot
Settings: compound 0.5 µM; ATP 10 µM
Write the answer as a number in %, unit excluded.

> print(dat)
                            compound.smiles  measurement
1  CS(=O)(=O)CCNCc1ccc(-c2ccc3ncnc(Nc4ccc(OCc5cccc(F)c5)c(Cl)c4)c3c2)o1         86.4

Now examine the next entry.
Incoming: Would you mind telling me what residual activity value was observed for N#Cc1c[nH]c2c[nH]/c(=N\Cc3cccnc3)cc2/c1=N\c1ccc(F)c(Cl)c1 ?
Outgoing: 99.7

====

System: FLT4 (human), P35916 [Q890H]
Sequence (P35916 whole entry, looked up, stated change not applied): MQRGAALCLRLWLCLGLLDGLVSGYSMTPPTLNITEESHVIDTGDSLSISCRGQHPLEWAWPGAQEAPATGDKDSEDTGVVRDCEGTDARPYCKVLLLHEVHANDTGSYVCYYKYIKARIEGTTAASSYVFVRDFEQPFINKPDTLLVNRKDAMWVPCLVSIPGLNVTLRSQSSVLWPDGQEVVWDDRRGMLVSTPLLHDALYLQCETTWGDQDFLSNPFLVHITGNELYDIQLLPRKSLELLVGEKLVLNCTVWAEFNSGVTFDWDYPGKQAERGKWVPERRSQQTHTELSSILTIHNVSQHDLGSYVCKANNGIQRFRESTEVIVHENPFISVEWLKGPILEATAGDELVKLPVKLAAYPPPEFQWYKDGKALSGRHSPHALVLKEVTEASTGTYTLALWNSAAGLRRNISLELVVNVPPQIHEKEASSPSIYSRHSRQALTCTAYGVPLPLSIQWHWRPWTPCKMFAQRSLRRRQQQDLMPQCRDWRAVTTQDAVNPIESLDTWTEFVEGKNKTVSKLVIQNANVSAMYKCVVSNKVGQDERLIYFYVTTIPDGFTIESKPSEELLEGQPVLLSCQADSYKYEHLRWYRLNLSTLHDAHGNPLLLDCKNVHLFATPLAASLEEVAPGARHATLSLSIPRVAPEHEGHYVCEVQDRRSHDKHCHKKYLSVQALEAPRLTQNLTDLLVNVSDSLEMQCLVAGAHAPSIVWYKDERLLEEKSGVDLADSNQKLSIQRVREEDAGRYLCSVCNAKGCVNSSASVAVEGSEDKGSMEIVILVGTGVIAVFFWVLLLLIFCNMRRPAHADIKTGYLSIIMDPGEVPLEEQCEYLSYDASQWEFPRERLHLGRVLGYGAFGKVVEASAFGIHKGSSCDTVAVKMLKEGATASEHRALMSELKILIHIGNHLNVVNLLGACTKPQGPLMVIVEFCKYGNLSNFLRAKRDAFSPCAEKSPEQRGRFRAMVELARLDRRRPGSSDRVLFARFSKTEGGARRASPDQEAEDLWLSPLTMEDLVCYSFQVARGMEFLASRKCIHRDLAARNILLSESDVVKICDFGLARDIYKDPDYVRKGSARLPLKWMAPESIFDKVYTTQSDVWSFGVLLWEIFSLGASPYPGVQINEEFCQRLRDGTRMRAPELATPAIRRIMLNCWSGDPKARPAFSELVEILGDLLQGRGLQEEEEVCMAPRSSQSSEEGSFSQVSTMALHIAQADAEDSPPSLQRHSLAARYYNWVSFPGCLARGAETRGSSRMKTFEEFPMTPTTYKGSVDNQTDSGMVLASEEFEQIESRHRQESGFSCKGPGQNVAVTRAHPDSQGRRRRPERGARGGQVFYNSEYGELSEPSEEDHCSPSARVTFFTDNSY
Experiment: radiometric filter-binding kinase assay, Kinase HotSpot
Settings: compound 0.5 µM; ATP 10 µM
Experimental endpoint: residual activity (%)
Write down the numeric answer in % and omit the unit.

Some solved cases for reference:
> print(dat)
                                   compound  units.symbol  measurement
1           Nc1ncnc2[nH]nc(Nc3ccc(F)cc3)c12             %         92.9
2  CCN(CC)C(=O)c1ccc(Nc2nc(OCC3CCCCC3)c3nc[nH]c3n2)cc1             %         25.9
3  COc1ccc2c(c[n+](C)c3c4cc5c(cc4ccc23)OCO5)c1OC             %         97.6
4        CC(C)(C)c1cc(C=C(C#N)C#N)cc(Br)c1O             %          102
5     O=c1cc(N2CCNCC2)oc2c(-c3ccccc3)cccc12             %          104
6  CCOC(=O)c1c(C)[nH]c(/C=C2\C(=O)Nc3ccccc32)c1C             %         79.2
7      O=C(Nc1ccc(Cl)cc1)c1ccccc1NCc1ccncc1             %         44.8
8  O=C(NC(NC(=S)Nc1ccc(F)c([N+](=O)[O-])c1)C(Cl)(Cl)Cl)C(c1ccccc1)c1ccccc1 (stereo not given)             %          102

Incoming: Item Cc1cc(Nc2nc(-c3ccccc3)nc3ccccc23)n[nH]1 has what recorded residual activity?
Outgoing: 44.9

Incoming: Record: CC(C)[C@H](CO)Nc1nc(Nc2cccc(Cl)c2)c2ncn(C(C)C)c2n1
Outgoing: 110

====

Molecular target: MARK4 (human)
Experiment: radiometric filter-binding kinase assay, Kinase HotSpot
Details: compound 0.5 µM; ATP 10 µM
compounds and their reported residual activity
The answer is to be given in %; state only the numeric part.

> print(dat)
                            compound.smiles            tgt  measurement
1  N#Cc1c[nH]c2c[nH]/c(=N\Cc3cccnc3)cc2/c1=N\c1ccc(F)c(Cl)c1  MARK4 (human)         96.4

Incoming: I would be grateful if you could share the reported residual activity for COc1ccc(C(=O)Nc2sc3c(c2C(N)=O)CCCC3)cc1OC .
Outgoing: 86.5

Incoming: Also COc1ccc(S(=O)(=O)N(CCO)c2ccccc2CN(C)C/C=C/c2ccc(Cl)cc2)cc1 ?
Outgoing: 102

Incoming: Try this compound too: C[C@@H]1CCN(C(=O)CC#N)C[C@@H]1N(C)c1ncnc2[nH]ccc12
Outgoing: 81.7

Incoming: Item: O=C1Nc2ccc(Br)cc2/C1=C\c1cc2c([nH]1)CCCC2
Outgoing: 82.9

Incoming: Note, next up: Cc1cccc(-c2nc(C(C)(C)C)[nH]c2-c2ccc3c(c2)OCO3)n1
Outgoing: 99.7
